Taken from paper PMC5842622.

measured.target: T1, rEhTBP (TATA-box binding protein) (Entamoeba histolytica, UniProt P52653 1-234)
T1 sequence: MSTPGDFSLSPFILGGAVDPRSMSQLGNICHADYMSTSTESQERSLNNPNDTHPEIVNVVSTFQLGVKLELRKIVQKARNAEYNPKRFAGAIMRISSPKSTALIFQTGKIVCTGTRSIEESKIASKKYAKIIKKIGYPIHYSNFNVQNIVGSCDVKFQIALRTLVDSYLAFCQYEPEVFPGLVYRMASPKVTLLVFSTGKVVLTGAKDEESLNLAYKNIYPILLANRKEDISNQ
method: EMSA; 4 C, 1 mM MgCl2; EMSA: 12 mM Hepes pH 7.9, 60 mM KCl, 1 mM each DTT, EDTA, spermidine and MgCl2, 10% glycerol, poly(dG-dC) 1 ug/ul, 10 min at 4 C; probe 557 pM (TATA), 64 pM (GAAC) or 82 pM (GAAC-like)
assay.context: protein: recombinant; tags: His tag; label: 5'-32P; blunt
attribute.measured: Kd (nM)
# number only, unit nM dropped from output

> print(dat)
                                     binder  attribute.measured  unit.symbol  endpoint.value
1  TAgTgAAA (2) (dsDNA) DNA 1: AATTCTCTAGTGAAAGAGAATT DNA 2: AATTCTCTTTCACTAGAGAATT                  Kd           nM          0.0398
2  TAcTcAAA (7) (dsDNA) DNA 1: AATTCTCTACTCAAAGAGAATT DNA 2: AATTCTCTTTGAGTAGAGAATT                  Kd           nM         0.00276
3  GAAC-box (wild type) (dsDNA) DNA 1: AAGACAATGAACTAGAATG DNA 2: CATTCTAGTTCATTGTCTT                  Kd           nM           0.019

Now consider a different binder.
Given the binder TATTaAAA (4) (dsDNA) DNA 1: AATTCTCTATTAAAAGAGAATT DNA 2: AATTCTCTTTTAATAGAGAATT , write its reported Kd.
0.00485
